Settings: in propylene glycol, 283.15 K
outcome measure: solubility (mole fraction)

[[record]]
molecule = "c1ccc(-c2ccc(C(c3ccccc3)n3ccnc3)cc2)cc1 (stereo unspecified)"
reading = 0.00233


* * *

Settings: in propylene glycol, 293.15 K
outcome measure: solubility (mole fraction)

[[record]]
molecule = "c1ccc(-c2ccc(C(c3ccccc3)n3ccnc3)cc2)cc1 (stereo unspecified)"
outcome_measure = "solubility (mole fraction)"
reading = 0.00418


* * *

Conditions: in isopropanol, 308.15 K
outcome measure: solubility (mole fraction)

[[record]]
molecule = "c1ccc(-c2ccc(C(c3ccccc3)n3ccnc3)cc2)cc1 (stereo unspecified)"
outcome_measure = "solubility (mole fraction)"
reading = 0.00722


* * *

Conditions: in propylene glycol, 278.15 K
outcome measure: solubility (mole fraction)

[[record]]
compound = "c1ccc(-c2ccc(C(c3ccccc3)n3ccnc3)cc2)cc1 (stereo unspecified)"
reading = 0.0017


* * *

Conditions: in propylene glycol, 298.15 K
outcome measure: solubility (mole fraction)

[[record]]
molecule = "c1ccc(-c2ccc(C(c3ccccc3)n3ccnc3)cc2)cc1 (stereo unspecified)"
outcome_measure = "solubility (mole fraction)"
reading = 0.00547


* * *

Details: in methanol, 313.15 K
outcome measure: solubility (mole fraction)

[[record]]
molecule = "c1ccc(-c2ccc(C(c3ccccc3)n3ccnc3)cc2)cc1 (stereo unspecified)"
reading = 0.0135


* * *

Conditions: in water, 318.15 K
outcome measure: solubility (mole fraction)

[[record]]
compound = "c1ccc(-c2ccc(C(c3ccccc3)n3ccnc3)cc2)cc1 (stereo unspecified)"
reading = "6.11e-05"


* * *

Settings: in water, 288.15 K
outcome measure: solubility (mole fraction)

[[record]]
molecule = "c1ccc(-c2ccc(C(c3ccccc3)n3ccnc3)cc2)cc1 (stereo unspecified)"
reading = "1.27e-05"


* * *

Details: in n-propanol, 313.15 K
outcome measure: solubility (mole fraction)

[[record]]
molecule = "c1ccc(-c2ccc(C(c3ccccc3)n3ccnc3)cc2)cc1 (stereo unspecified)"
outcome_measure = "solubility (mole fraction)"
reading = 0.0106


* * *

Conditions: in n-propanol, 293.15 K
outcome measure: solubility (mole fraction)

[[record]]
molecule = "c1ccc(-c2ccc(C(c3ccccc3)n3ccnc3)cc2)cc1 (stereo unspecified)"
reading = 0.00355


* * *

Conditions: in isopropanol, 303.15 K
outcome measure: solubility (mole fraction)

[[record]]
molecule = "c1ccc(-c2ccc(C(c3ccccc3)n3ccnc3)cc2)cc1 (stereo unspecified)"
outcome_measure = "solubility (mole fraction)"
reading = 0.00554


* * *

Details: in n-propanol, 283.15 K
outcome measure: solubility (mole fraction)

[[record]]
compound = "c1ccc(-c2ccc(C(c3ccccc3)n3ccnc3)cc2)cc1 (stereo unspecified)"
outcome_measure = "solubility (mole fraction)"
reading = 0.00196


* * *

Conditions: in water, 308.15 K
outcome measure: solubility (mole fraction)

[[record]]
molecule = "c1ccc(-c2ccc(C(c3ccccc3)n3ccnc3)cc2)cc1 (stereo unspecified)"
outcome_measure = "solubility (mole fraction)"
reading = "3.87e-05"


* * *

Details: in propylene glycol, 318.15 K
outcome measure: solubility (mole fraction)

[[record]]
compound = "c1ccc(-c2ccc(C(c3ccccc3)n3ccnc3)cc2)cc1 (stereo unspecified)"
reading = 0.0149


* * *

Details: in methanol, 278.15 K
outcome measure: solubility (mole fraction)

[[record]]
compound = "c1ccc(-c2ccc(C(c3ccccc3)n3ccnc3)cc2)cc1 (stereo unspecified)"
outcome_measure = "solubility (mole fraction)"
reading = 0.00228

